system: MS2 coat protein; experiment: apparent KD of MS2 coat protein; designed switch direction (-1 OFF switch, 1 ON switch): -1; higher = weaker reporter binding; conditions: Eterna round: R95; input ligand: none
Overview of reported apparent KD of MS2 coat protein across a group of sequences:
Give your result in nM as a bare value.

Past entries and their recorded results:
Sequence entry: CAGGUGUUAGGAUAUCGGAGAUCGAGGCCGACGGGAAAAGCCGAGAAGGAACAUGAGGAUCACCCAUGUAGGUG [JR_Exclu4_Sub035] (puzzle: Exclusion 4)
Endpoint: apparent KD of MS2 coat protein
Unit abbreviation: nM
Numeric value: 223

Sequence entry: AAGAAACAUGAGGAUCACCCAUGUGAGGAUAUGAUUAAGAAAAGAAAAGAAAGAAGAGUCAGAAGGCACAAAGG [salish99-ex1_r3_063] (puzzle: Exclusion 1)
Endpoint: apparent KD of MS2 coat protein
Unit abbreviation: nM
Numeric value: 61.8

Sequence entry: GUUAAACAUGAGGAUCACCCAUGUAAGGAUAUGCUGAGGUCGCGCUGACGUGAAUGAAGCAGAAGGUACAAAUG [Mat - Mod of JL D63] (puzzle: Exclusion 1)
Endpoint: apparent KD of MS2 coat protein
Unit abbreviation: nM
Numeric value: 60.8

For AGUAACUAUCACGAAAGUGAUAGUUACACAAGCAGUGAAACAUGAGGAUCACCCAUGUCCUCAUUAGCUCGUCUUAU [Sensor 3 - 32] (puzzle: Sensor v3, turn-off variant 2) , write its apparent KD of MS2 coat protein.
164

For AUAGAGUCAGGAUAUACAGGUGGAGGAAAGCAGCAUAAGGAGUAGAAGGGACAUGAGGAUCACCCAUGUAAGUG [JR_Exclu4_Sub058] (puzzle: Exclusion 4) , write its apparent KD of MS2 coat protein.
60.2

For AUUAAGCAGCAGGAUAUAAGUAUCUGAUGGUGGUUAGAAGGGCUGACAUGAGGAUCACCCAUGUGCUCUUCGUG [Tieruseres] (puzzle: Exclusion 6) , write its apparent KD of MS2 coat protein.
14.1

For CUGUAACGAGCGUGAGCCGACAUGAGGAUCACCCAUGUGCUCGUCUUAUAACGUACUGUCACGUUAGUGAUAGUGCG [Sensor v3, turn-off variant 1 (MOD of Eli's v1-13 v.2)] (puzzle: Sensor v3, turn-off variant 1) , write its apparent KD of MS2 coat protein.
37.3

For CAAAAGCUAGGAUAUCGUAAACAAGACAUGAGGAUCACCCAUGUGUCCGUGGCUGACCUCCGAGAAGGAGCAAUAU [Bilate] (puzzle: Exclusion 5) , write its apparent KD of MS2 coat protein.
18.6

For AAAAAGAUAGGAUAUACAAUAAAAUAAAAUAAAAUAAAUACACAUGAGGAUCACCCAUGUAGAAGGAUCGAAAA [Exclusion 2 #1] (puzzle: Exclusion 2) , write its apparent KD of MS2 coat protein.
31.2

For GCGAAAGCAACAAGUGAAAACAUGAGGAUCACCCAUGUCCUCAUUUGCUCGUCUUAUAAGCUAUGCGAAAGCAUAGC [Sensor 3, v1 - 10] (puzzle: Sensor v3, turn-off variant 1) , write its apparent KD of MS2 coat protein.
74.4

For ACAAGCUUUUUGUUCGUCUUAUAAAAUCCUAAGAGGAAAACAUGAGGAUCACCCAUGUAACAAAGACGGACUCAUGU [Sesor Array 12 - Jieux - Sensor v3, turn-off variant 2] (puzzle: Sensor v3, turn-off variant 2) , write its apparent KD of MS2 coat protein.
10.8

----------
tested on: K4 kissing-loop RNA reporter; assay: apparent KD of K4 kissing-loop reporter; higher = weaker reporter binding; settings: Eterna round: R107; input ligand: tryptophan 2.4 mM
Overview of reported apparent KD of K4 kissing-loop reporter across a group of sequences:
Give your result in µM as a bare value.

Sequence entry: UAACUGCAGUGAUGUUGCAGAUGUCCUGACUAGGAUAUCAGGAAACUGAGAAGGAGUCCCUUCUAAACAUCACAGAAGGAGGACA [[K1]-[K2]-[F1]'-[F1]-[F2]-[F2]'-[K]'-[F]''_Design2]
Tested on: K4 kissing-loop RNA reporter
Unit abbreviation: µM
apparent KD of K4 kissing-loop reporter: 0.442

Sequence entry: AGACCCUGGUAGGAUACCAGCGGCAUGCAGUGCGAGAGAGCGUAGUGAUGUUACGAGACCCGCCCUUGGCAGCCUGGGAAUGUGU [theeternabot_exclusion_KL_Theo_B_50]
Tested on: K4 kissing-loop RNA reporter
Unit abbreviation: µM
apparent KD of K4 kissing-loop reporter: 0.0726

For UGAUCUCAGUGAUGUUGAGAUCAAACUGAUACCAGUCAAUUUAGUGACCCUUGGCAGCAGUAUACCAAGGGAUCUUAUGAGAUCA [Theo A SS t5] , write its apparent KD of K4 kissing-loop reporter.
0.154

For GUCCACACUGCAGGAUAUGGAGGUAUAGCGAGGGAGUGUGGAAGCACACCUCUGGCAGUGAUGUUGCCAGAAGGGCGGUGCGGCG [Masodionra] , write its apparent KD of K4 kissing-loop reporter.
0.0932

For UGUCAUUGGUCUGAUACCAGAAGAAAUCUGGAGUGAUGUUCCAAGUCGACAAAAUGUCGCUUCCCUUGGCAGCAGACCGAUGACU [TheoBS 23 #SwitchBubble 13 #StaticStem] , write its apparent KD of K4 kissing-loop reporter.
0.349

For GUCUGCGUCUCGGCCGCCACUCACUAGUGAUGUUAGUAAGGAGCGACUAGAGAAGUCCAGUUGAUGAGGACCGGGAGACGCAAAA [Exclusion Tryptophan B GF4] , write its apparent KD of K4 kissing-loop reporter.
0.169

----------
test system: MS2 coat protein; assay: apparent KD of MS2 coat protein; designed switch direction (-1 OFF switch, 1 ON switch): 1; higher = weaker reporter binding; conditions: input ligand: FMN 200 uM
Overview of reported apparent KD of MS2 coat protein across a group of sequences:
Your answer should be a number followed by the unit of measure.

Past entries and their recorded results:
Sequence entry: AUUUGUAAUGCAGGAUAUGAUUAACAUGAGGAUCACCCAUGUGGUGUUGUGAGUAAGGAGAGUGAUCAGAAGGGCAUUUUUUUU [JMF's solution 98] (Eterna round: R96, puzzle: Same State NG 2)
Result: 800 nM

Sequence entry: AUAAAACACAUGAGGAUCACCCAUGUGGCCGAAGAAGGCACACAGGAUAUCAAGCAACUAAAGCUUGAGAAGGGUGAGACAAAA [Quistera] (Eterna round: R96, puzzle: Same State NG 3)
Result: 494 nM

For AGUAUUUAUGCAGGAUAUGAUUAACAUGAGGAUCACCCAUGUGGUGUUGUGAGUAAGGAGAGUGAUCAGAAGGGCAUUUUUUUU [JMF's solution 74] (Eterna round: R96, puzzle: Same State NG 2) , write its apparent KD of MS2 coat protein.
512 nM

----------
tested on: MS2 coat protein; experiment: apparent KD of MS2 coat protein; higher = weaker reporter binding; settings: Eterna round: R107; input ligand: arginine 13.2 mM
Overview of reported apparent KD of MS2 coat protein across a group of sequences:
Give your result in nM as a bare value.

Past entries and their recorded results:
Sequence entry: UCGUUUUAGUCGGCCGCCACUGUAUGCAUGUUUAACAUGAGGAUCACCCAUGUCCCGUACUAUUUCAGGACCGGGACGUAAUCGA [JR_SSTryptoB_Sub007]
apparent KD of MS2 coat protein / nM: 140

Sequence entry: UAAUUCACUAUUCACGGUCCGAUGUUCGAUACCAGAUCAUUUCGAAUCCCUUGGCAGCGAUUAACAUGAGGAUCACCCAUGUAAC [theeternabot_exclusion_MS2_Theo_A_35]
apparent KD of MS2 coat protein / nM: 28.4

Sequence entry: AGGUGGCGCGGAAGGAGCGAGUUUGCCUAUUACAUGAGGAUCACCCAUGUGGGUAAUGGGACUCAGGUAGGUCGCCGUUGUCGCU [Same State Arginine B GF 27]
apparent KD of MS2 coat protein / nM: 35.6

For AAAUCAGUCUGAAGGAGCGUCACAUGAGGAUCACCCAUGUACAUGAGGAUCACCCAUGUGUGACAGGUAGGUCGCAGAGGAUACC [Exclusion Arginine B GF 4] , write its apparent KD of MS2 coat protein.
125

For CGCACAUGAGGAUCACCCAUGUGAGGGCGUCGAGGACCGGUACGGCCGCCACUCGCAGGACAUGAGGAUCACCCAUGUGCCGCCG [SSTA DOUBLE!!! :-D #4] , write its apparent KD of MS2 coat protein.
39.8

For CCGGUUAGGACGGCCGCCACUGUGGCUACGGUACAUGAGGAUCACCCAUGUUUGUGGUUGAUCUACAGGACCGGGUCCUGACACG [Eronri] , write its apparent KD of MS2 coat protein.
124

----------
test system: K4 kissing-loop RNA reporter; assay: apparent KD of K4 kissing-loop reporter; higher = weaker reporter binding; details: Eterna round: R107; input ligand: FMN 200 uM
Endpoint: apparent KD of K4 kissing-loop reporter (nM)
Give your result in nM as a bare value.

Past entries and their recorded results:
Sequence entry: GCGAAAAGCAAAACGAGUGAUGUUCGAAAACGAGGACCGGUACGGCCGCCACUCGAAAACGUCUGCGUGGGAAACUAUGUAGAUG [SS Tryptophan A - 1]
Tested on: K4 kissing-loop RNA reporter
Unit abbreviation: nM
apparent KD of K4 kissing-loop reporter: 511

Sequence entry: GGGAGUAGUGCGGCCGCCACUGAGAAAGAAGAAGAAUAUAGUGAUGUUAUAUAGGAAUAAAAGAACAGGACCGGGCAUUAGAUUU [SSTRyptB.T]
Tested on: K4 kissing-loop RNA reporter
Unit abbreviation: nM
apparent KD of K4 kissing-loop reporter: 263

Sequence entry: ACGCGCGCGAGUGAUGUUCGGAGCGGCUGGCAGGAUAUGUAGCAAUGCAGAAGGGUCGUGGCGCGUCCAGGGUAACCUGGACGCG [#2 Exclusion - FMN A Attempt #26 (HarryS)]
Tested on: K4 kissing-loop RNA reporter;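 also: bound reporter read as fluorescence of individual clusters on recovered sequencing chips by microscopy, with normalized cluster intensities fitted with a binding model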
Unit abbreviation: nM
apparent KD of K4 kissing-loop reporter: 280

For UCGAGUUGACGAAAAGUCAACUCGUGAGAUACCAGUGACGAAAGUCACCCUUGGCAGCUCACUGCCAGUGAUGUUGGUAUAUAGA [#05 K4 Theophylline A Same State] , write its apparent KD of K4 kissing-loop reporter.
146

For AGACUACCUACACUGUCAAUAGACAGUGACUAGGAUAUGCUGAUAAGCAGAAGGAGUGAUGUUCCUAAUAAAAGGUGGUAGUCAU [FmnAX 19 #SwitchBubble #StaticStem #K4Early] , write its apparent KD of K4 kissing-loop reporter.
309
